Listed below: pKi values for each entry.
molecular target: Protoporphyrinogen oxidase (Bacillus subtilis (strain 168), UniProt P32397); assay: Inhibition of Bacillus subtilis Protoporphyrinogen oxidase by capillary electrophoresis
Sequence (P32397 whole entry): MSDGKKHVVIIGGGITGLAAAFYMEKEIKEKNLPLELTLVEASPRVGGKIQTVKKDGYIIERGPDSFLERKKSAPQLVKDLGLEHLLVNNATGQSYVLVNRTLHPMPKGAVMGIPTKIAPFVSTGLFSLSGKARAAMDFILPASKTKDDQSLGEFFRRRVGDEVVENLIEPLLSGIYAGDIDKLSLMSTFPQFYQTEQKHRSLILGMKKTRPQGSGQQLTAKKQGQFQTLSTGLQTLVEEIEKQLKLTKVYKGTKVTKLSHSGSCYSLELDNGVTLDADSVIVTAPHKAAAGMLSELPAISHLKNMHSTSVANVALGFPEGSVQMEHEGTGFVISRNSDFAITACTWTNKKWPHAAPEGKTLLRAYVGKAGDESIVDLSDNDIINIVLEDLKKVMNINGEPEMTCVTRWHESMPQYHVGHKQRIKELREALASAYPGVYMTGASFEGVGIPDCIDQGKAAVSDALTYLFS
Lab note — pKi values are minus log10 of concentrations in M.

COMPOUND | VALUE_TYPE | ENDPOINT_RESULT
C#CCN1C(=O)COc2cc(F)c(N3C(=O)c4ccccc4C3=O)cc21 | pKi | 5.48
O=C(NC(=O)c1cccc(OC(F)(F)F)c1)Nc1cc(N2C(=O)C3=C(CCCC3)C2=O)c(F)cc1Cl | pKi | 7.47
O=C(NC(=O)c1ccccc1)Nc1cc(N2C(=O)C3=C(CCCC3)C2=O)c(F)cc1Cl | pKi | 7.05
N#CCN1C(=O)COc2cc(F)c(N3C(=O)c4ccccc4C3=O)cc21 | pKi | 5.99
O=C(NC(=O)c1c(Cl)cccc1Cl)Nc1cc(N2C(=O)C3=C(CCCC3)C2=O)c(F)cc1Cl | pKi | 7.89

Would you mind telling me what pKi value was observed for O=C(NC(=O)c1c(F)cccc1Cl)Nc1cc(N2C(=O)C3=C(CCCC3)C2=O)c(F)cc1Cl ?
8.08

How about this compound: CNC(=O)Nc1cc(N2C(=O)C3=C(CCCC3)C2=O)c(F)cc1Cl
6.43

How about this compound: CCOC(=O)C(C)N1C(=O)C(C)Oc2cc(F)c(N3C(=O)C4=C(CCCC4)C3=O)cc21 (centres undefined)
6.96

How about this compound: O=C(NC(=O)c1ccc(Cl)cc1Cl)Nc1cc(N2C(=O)C3=C(CCCC3)C2=O)c(F)cc1Cl
7.57
